- Target Or Test System: Tyrosine-protein kinase Fer (Homo sapiens) (UniProt P16591)
- Sequence (P16591 whole entry, looked up): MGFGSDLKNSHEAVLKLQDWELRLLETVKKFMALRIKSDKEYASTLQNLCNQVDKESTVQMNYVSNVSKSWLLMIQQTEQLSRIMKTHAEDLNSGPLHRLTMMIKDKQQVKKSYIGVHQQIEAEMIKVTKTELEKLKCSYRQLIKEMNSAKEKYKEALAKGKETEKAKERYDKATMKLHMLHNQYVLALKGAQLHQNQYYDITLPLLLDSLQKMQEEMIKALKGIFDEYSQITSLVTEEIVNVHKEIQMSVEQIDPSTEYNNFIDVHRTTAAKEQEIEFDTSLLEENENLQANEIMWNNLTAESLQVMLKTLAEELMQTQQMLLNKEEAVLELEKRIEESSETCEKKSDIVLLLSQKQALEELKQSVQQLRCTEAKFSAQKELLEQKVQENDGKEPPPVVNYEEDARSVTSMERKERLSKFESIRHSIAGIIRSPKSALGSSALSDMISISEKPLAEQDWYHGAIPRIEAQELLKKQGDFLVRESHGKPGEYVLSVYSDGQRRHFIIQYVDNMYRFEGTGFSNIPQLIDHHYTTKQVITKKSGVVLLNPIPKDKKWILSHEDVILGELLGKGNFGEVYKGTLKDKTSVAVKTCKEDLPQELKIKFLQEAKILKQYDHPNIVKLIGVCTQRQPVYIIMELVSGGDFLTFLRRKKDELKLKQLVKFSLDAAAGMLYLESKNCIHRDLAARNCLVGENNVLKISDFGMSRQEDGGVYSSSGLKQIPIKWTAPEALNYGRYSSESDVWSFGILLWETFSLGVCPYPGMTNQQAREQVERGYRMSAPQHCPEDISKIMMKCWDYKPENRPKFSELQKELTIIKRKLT
- Run Conditions: at 1 µM
- Description: GSK_PKIS: FER mean inhibition at 1 uM [Nanosyn]
The following compounds are listed with their measured inhibition values.
The figure you give is taken to be in %; do not add the unit.

CCN1CCC(CC(=O)Nc2n[nH]c3nnc(-c4cccc(F)c4F)cc23)CC1 = 1.74
CCNC(=O)O[C@H]1CN[C@H](C#Cc2cc3ncnc(Nc4ccc(OCc5cccc(F)c5)c(Cl)c4)c3s2)C1 = -0.34
Nc1nc(-c2cccc(Cl)c2)c(-c2ccc3ncccc3n2)s1 = 3.32
CCCN1CCC(c2ccc(Nc3nc(Nc4cc(F)ccc4C(N)=O)c4cc[nH]c4n3)c(OC)c2)CC1 = 82.4
CNC(=O)c1cc(-c2ccc(F)cc2)cc(-c2ccc(S(=O)(=O)N3CCCC3)cc2)c1N = 2.21
c1cc(-c2cnn3nc(N4CCOCC4)ccc23)nc(NC2CC2)n1 = 1.58

*Q* Sample CCOc1ccc2c(-c3ccnc(Nc4cccc(C(F)(F)F)c4)n3)cnn2n1 — what was its inhibition?
*A* 7.63

*Q* Sample COc1cc(/C=N/Nc2ncnc3[nH]ncc23)ccc1O — what was its inhibition?
*A* 14.3

*Q* Sample COC(=O)Nc1nc2ccc(Oc3ccc(NC(=O)Nc4cccc(Cl)c4)cc3)cc2[nH]1 — what was its inhibition?
*A* 2.41

*Q* Sample Clc1ccc(-c2nn3ncccc3c2-c2ccnc(Nc3ccccc3)n2)cc1 — what was its inhibition?
*A* 4.34

*Q* Sample CCn1c(-c2nonc2N)nc2cnc(Oc3cccc(NC(=O)c4ccc(N(C)C)cc4)c3)cc21 — what was its inhibition?
*A* 2.5

*Q* Sample CC(C)COC(=O)c1ccc2c(c1)/C(=C/Nc1ccc(S(N)(=O)=O)cc1)C(=O)N2 — what was its inhibition?
*A* 11.1

*Q* Sample CS(=O)(=O)CCNCc1coc(-c2ccc3ncnc(Nc4ccc(OCc5ccccc5)cc4)c3c2)c1 — what was its inhibition?
*A* 1.36

*Q* Sample CCn1c(-c2nonc2N)nc2c(C#CC(C)(C)O)nc(OC[C@H](N)c3ccccc3)cc21 — what was its inhibition?
*A* 7.41

====

- Target Or Test System: Insulin receptor (Homo sapiens) (UniProt P06213);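 also: reported values are averages of replicate inhibition measurements against the insulin receptor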
- Run Conditions: at 0.1 µM
Endpoint Label: inhibition (%)
The figure you give is taken to be in %; do not add the unit.

Use these answered entries as a reference point.
CCn1cc(-c2ccnc3[nH]ccc23)c(-c2cccc(NC(=O)Nc3ccc(OCc4ccccc4)cc3)c2)n1 = 2.08
CN1CCC(n2cnc(-c3ccc(F)cc3)c2-c2ccnc(Nc3ccccc3)n2)CC1 = 1.5

*Q* Sample N#Cc1c(NC(=O)CN2CCOCC2)sc2c1CCCC2 — what was its inhibition?
*A* 13.2

*Q* Sample CS(=O)(=O)CCNCc1coc(-c2ccc3ncnc(Nc4ccc(OCc5ccccc5)cc4)c3c2)c1 — what was its inhibition?
*A* 3.09

*Q* Sample COc1cc(/C=N/Nc2ncnc3[nH]ncc23)ccc1O — what was its inhibition?
*A* 5.52

*Q* Sample CCn1c(-c2nonc2N)nc2c(C#CC(C)(C)O)ncc(OC3CCNCC3)c21 — what was its inhibition?
*A* 1.46

*Q* Sample CC(C)COC(=O)c1ccc2c(c1)/C(=C/Nc1ccc(S(N)(=O)=O)cc1)C(=O)N2 — what was its inhibition?
*A* 2.06

*Q* Sample COc1cc(N2CCN(C(C)C)CC2)ccc1Nc1nc(Nc2ccc(F)cc2C(N)=O)c2cc[nH]c2n1 — what was its inhibition?
*A* 103

*Q* Sample CN1CCC(n2cnc(-c3ccc(F)cc3)c2-c2ccnc(N)n2)CC1 — what was its inhibition?
*A* 2.01

*Q* Sample CCn1c(-c2nonc2N)nc2ccccc21 — what was its inhibition?
*A* 2.87

*Q* Sample c1ccc(COc2ccc(Nc3ncnc4ccc(-c5ccco5)cc34)cc2)cc1 — what was its inhibition?
*A* 0.94

*Q* Sample Cc1ccc2c(-c3ccnc(Nc4ccccc4)n3)c(-c3ccc(F)cc3)nn2n1 — what was its inhibition?
*A* 1.31

*Q* Sample Fc1ccc(-c2cc(-c3c[nH]nc3-c3ccccn3)ccn2)cc1 — what was its inhibition?
*A* 6.47

*Q* Sample CS(=O)(=O)CCNCc1ccc(-c2ccc3ncnc(Nc4ccc(OCc5ccccc5)c(C(F)(F)F)c4)c3c2)o1 — what was its inhibition?
*A* 0.37

*Q* Sample CC1=C(C(=O)Nc2cc(Cl)c3[nH]ncc3c2)C(c2ccc(C(F)(F)F)cc2)CC(=O)N1 (configuration not stated) — what was its inhibition?
*A* 5.06

====

- Target Or Test System: Rho-associated protein kinase 1 (Homo sapiens) (UniProt Q13464);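 also: values are mean percent inhibition of ROCK1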
- Sequence (Q13464 2-1354 limits assumed): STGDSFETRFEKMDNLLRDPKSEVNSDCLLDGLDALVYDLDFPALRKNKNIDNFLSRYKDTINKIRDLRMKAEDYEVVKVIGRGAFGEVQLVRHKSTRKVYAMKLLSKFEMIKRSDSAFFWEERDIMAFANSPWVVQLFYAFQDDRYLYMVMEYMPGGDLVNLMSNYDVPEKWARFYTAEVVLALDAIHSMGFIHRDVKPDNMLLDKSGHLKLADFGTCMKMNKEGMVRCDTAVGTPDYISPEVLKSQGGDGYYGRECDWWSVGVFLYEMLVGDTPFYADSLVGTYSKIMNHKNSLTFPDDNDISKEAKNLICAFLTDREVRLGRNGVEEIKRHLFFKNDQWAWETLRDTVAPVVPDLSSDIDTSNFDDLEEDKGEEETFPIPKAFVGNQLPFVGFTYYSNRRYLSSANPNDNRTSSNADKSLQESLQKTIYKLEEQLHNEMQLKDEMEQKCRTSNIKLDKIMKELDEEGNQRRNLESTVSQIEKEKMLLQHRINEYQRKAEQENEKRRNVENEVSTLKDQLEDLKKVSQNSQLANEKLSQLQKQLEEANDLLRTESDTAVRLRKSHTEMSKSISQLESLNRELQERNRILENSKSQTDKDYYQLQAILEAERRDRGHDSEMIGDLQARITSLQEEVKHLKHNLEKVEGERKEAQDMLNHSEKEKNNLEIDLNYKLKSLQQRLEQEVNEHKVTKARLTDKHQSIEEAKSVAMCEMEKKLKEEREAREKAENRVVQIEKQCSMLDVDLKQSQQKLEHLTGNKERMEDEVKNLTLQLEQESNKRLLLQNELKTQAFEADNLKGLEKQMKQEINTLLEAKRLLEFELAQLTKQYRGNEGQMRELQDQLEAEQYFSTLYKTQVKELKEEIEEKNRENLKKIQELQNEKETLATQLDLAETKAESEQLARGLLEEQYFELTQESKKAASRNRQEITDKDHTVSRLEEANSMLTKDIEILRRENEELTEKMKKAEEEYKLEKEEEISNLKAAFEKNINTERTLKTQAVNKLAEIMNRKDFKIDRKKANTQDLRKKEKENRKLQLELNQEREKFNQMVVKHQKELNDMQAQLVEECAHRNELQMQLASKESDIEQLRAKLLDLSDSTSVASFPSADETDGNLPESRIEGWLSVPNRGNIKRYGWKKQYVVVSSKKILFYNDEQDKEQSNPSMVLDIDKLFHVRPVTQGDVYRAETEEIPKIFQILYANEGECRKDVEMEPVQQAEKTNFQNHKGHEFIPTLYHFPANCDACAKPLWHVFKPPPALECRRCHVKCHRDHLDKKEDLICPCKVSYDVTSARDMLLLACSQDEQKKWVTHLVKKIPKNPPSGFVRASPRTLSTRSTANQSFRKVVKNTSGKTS
- Run Conditions: at 0.1 µM
The following compounds are listed with their measured inhibition values.
Please answer in the form of a number followed by its unit of measurement.

Use these answered entries as a reference point.
c1ccc(COc2ccc(Nc3ncnc4ccc(-c5ccco5)cc34)cc2)cc1 = 0.21%
CNC(=O)c1cccc(C#Cc2cncnc2Nc2ccc(OCc3cccc(F)c3)c(Cl)c2)c1 = -1.85%
CC(C)(CO)CNC(=O)c1ccc2c(c1)/C(=N/Nc1ccc(S(N)(=O)=O)cc1)C(=O)N2 = 0.33%

Consider the additional compound presented here.
*Q* Sample CCn1c(-c2nonc2N)nc2c(C#CC(C)(C)O)nc(OC[C@H](N)c3ccccc3)cc21 — what was its inhibition?
*A* 2.85%

====

- Target Or Test System: Discoidin domain-containing receptor 2 (Homo sapiens);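 also: reported values are mean percent inhibition of DDR2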
- Run Conditions: at 0.1 µM
The following compounds are listed with their measured inhibition values.
The figure you give is taken to be in %; do not add the unit.

Use these answered entries as a reference point.
[O-][S+]1CCN(Cc2ccc(-c3ccc4ncnc(Nc5ccc(OCc6cccc(F)c6)c(Cl)c5)c4c3)o2)CC1 = 2.52
CCOc1ccc2c(-c3ccnc(Nc4cccc(C(F)(F)F)c4)n3)cnn2n1 = 4.46
Fc1ccc(-c2nn3ccccc3c2-c2ccncc2)cc1 = 1.72
CCn1cc(-c2ccnc3[nH]ccc23)c(-c2cccc(NC(=O)Nc3ccc(OCc4ccccc4)cc3)c2)n1 = 2.59
COc1cc2c(cc1Nc1nc(Nc3ccsc3C(N)=O)c3cc[nH]c3n1)N(C(=O)CN(C)C)CCC2(C)C = 4.88

*Q* Sample CC(C)COC(=O)c1ccc2c(c1)/C(=C/Nc1ccc(S(N)(=O)=O)cc1)C(=O)N2 — what was its inhibition?
*A* -1.05

====

- Target Or Test System: Tyrosine-protein kinase ITK/TSK (Homo sapiens)
- Run Conditions: at 1 µM
Endpoint Label: inhibition (%)
The figure you give is taken to be in %; do not add the unit.

Use these answered entries as a reference point.
CNC(=O)c1cncc(/C=C/c2ccccc2Cl)c1 = 2.43
Nc1nc(-c2ccc(F)cc2)c(-c2ccc3ncccc3n2)s1 = 2.71
Fc1ccc(-c2nn3ccccc3c2-c2ccncc2)cc1 = 1.56

*Q* Form: Entry = CCN1CCC(CC(=O)Nc2n[nH]c3nnc(-c4cccc(F)c4F)cc23)CC1 | System = Tyrosine-protein kinase ITK/TSK (Homo sapiens) | inhibition = ____
*A* 1.3

*Q* Form: Entry = Nc1ncc(-c2cccc(S(N)(=O)=O)c2)c2scc(-c3ccc(F)c(Cl)c3)c12 | System = Tyrosine-protein kinase ITK/TSK (Homo sapiens) | inhibition = ____
*A* 3.69

*Q* Form: Entry = CS(=O)(=O)CCNCc1ccc(-c2ccc3ncnc(Nc4ccc(OCc5ccccc5)c(C(F)(F)F)c4)c3c2)o1 | System = Tyrosine-protein kinase ITK/TSK (Homo sapiens) | inhibition = ____
*A* 2.16

*Q* Form: Entry = COc1cc2ncn(-c3cc(OCc4ccccc4C(F)(F)F)c(C(=O)N(C)C)s3)c2cc1OC | System = Tyrosine-protein kinase ITK/TSK (Homo sapiens) | inhibition = ____;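 also: values are mean percent inhibition of ITK from the GSK PKIS screen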
*A* 1.76

====

- Target Or Test System: Serine/threonine-protein kinase MRCK alpha (Homo sapiens) (UniProt Q5VT25);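 also: each inhibition figure is a mean value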
- Sequence (Q5VT25 whole entry): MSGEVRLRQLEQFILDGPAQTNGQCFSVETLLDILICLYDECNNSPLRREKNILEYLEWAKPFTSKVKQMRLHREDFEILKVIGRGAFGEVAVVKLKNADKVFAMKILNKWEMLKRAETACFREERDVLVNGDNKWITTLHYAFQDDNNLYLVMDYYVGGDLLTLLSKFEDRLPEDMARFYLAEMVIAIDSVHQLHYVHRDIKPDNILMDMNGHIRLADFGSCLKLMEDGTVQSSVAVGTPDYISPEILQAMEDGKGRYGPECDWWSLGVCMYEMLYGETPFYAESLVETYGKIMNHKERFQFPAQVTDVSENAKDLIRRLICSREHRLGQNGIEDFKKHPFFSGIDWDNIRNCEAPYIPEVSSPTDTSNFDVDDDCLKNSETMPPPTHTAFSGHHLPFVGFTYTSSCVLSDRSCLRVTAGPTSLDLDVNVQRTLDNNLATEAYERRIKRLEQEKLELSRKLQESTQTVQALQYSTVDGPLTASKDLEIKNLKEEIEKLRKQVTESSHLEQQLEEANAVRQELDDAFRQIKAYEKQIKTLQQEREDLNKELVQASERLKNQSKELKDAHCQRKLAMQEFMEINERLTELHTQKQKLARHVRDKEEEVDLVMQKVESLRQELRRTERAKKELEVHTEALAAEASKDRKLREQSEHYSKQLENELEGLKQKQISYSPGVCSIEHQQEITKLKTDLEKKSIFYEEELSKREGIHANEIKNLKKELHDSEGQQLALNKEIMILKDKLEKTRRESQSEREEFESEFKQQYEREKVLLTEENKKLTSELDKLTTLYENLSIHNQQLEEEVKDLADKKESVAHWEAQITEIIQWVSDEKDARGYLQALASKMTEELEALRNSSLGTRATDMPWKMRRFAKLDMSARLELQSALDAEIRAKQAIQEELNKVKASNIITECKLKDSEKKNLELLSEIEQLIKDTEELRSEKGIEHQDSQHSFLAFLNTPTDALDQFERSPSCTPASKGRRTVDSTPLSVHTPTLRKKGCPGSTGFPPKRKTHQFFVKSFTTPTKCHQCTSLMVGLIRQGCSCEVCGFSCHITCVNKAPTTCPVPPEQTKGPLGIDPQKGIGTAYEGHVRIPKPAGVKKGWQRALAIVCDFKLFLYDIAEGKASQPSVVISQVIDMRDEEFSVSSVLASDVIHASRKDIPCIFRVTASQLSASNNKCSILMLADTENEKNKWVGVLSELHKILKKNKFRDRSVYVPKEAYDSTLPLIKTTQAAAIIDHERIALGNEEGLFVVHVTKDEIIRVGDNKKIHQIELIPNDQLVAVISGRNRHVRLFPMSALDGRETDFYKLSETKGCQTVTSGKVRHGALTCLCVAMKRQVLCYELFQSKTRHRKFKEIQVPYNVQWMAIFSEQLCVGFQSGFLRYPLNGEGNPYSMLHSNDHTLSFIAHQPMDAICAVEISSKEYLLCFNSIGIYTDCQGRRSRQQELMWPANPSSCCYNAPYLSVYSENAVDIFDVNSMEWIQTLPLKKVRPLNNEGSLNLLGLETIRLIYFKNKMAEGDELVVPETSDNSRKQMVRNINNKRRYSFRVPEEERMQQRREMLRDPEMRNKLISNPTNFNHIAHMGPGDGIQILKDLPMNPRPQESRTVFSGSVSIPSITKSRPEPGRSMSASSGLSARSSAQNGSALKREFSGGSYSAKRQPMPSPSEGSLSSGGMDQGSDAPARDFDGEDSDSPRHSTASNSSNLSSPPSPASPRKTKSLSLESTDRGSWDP
- Run Conditions: at 0.1 µM
The following compounds are listed with their measured inhibition values.
The figure you give is taken to be in %; do not add the unit.

COC(=O)Nc1nc2ccc(S(=O)(=O)c3ccc(NC(=O)Nc4cc(C(F)(F)F)ccc4F)cc3)cc2[nH]1 = 0.58

*Q* Sample N#Cc1c(NC(=O)c2ccc(F)cc2)sc2c1CCCC2 — what was its inhibition?
*A* 0.16

*Q* Sample O=C(O[C@H]1CN[C@H](C#Cc2cc3ncnc(Nc4ccc(Cc5ccccc5)cc4)c3s2)C1)N1CCOCC1 — what was its inhibition?
*A* -1.95

====

- Target Or Test System: Serine/threonine-protein kinase BRSK2 (Homo sapiens);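 also: values are mean inhibition of BRSK2 from the GSK PKIS screening dataset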
- Sequence (whole entry): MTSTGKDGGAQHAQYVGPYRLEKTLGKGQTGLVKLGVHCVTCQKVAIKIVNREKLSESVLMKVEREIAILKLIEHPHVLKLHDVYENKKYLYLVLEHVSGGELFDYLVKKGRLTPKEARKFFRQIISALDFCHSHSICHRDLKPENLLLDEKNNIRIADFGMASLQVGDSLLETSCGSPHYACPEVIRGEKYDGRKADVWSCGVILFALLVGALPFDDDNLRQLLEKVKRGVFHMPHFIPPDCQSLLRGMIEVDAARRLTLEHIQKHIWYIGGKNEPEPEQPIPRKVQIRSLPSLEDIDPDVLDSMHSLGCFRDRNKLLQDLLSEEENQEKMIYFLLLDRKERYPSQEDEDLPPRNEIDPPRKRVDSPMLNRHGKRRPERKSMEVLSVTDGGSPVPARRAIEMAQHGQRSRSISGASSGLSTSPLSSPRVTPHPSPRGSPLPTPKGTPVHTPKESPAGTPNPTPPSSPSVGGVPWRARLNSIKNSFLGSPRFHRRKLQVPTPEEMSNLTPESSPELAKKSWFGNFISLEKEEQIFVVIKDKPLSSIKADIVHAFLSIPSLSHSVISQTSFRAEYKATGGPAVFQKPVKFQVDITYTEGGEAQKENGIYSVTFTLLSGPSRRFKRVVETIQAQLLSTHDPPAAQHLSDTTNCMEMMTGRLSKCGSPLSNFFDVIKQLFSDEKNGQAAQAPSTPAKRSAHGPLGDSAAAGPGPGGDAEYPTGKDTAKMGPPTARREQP
- Run Conditions: at 0.1 µM
Tick true (1) if inhibition is 2% or greater. Tick false (0) if inhibition is less than 2%.

Worked examples, 3 compounds total:
FC(F)(F)c1cccc(-c2nn3ncccc3c2-c2ccnc(Nc3ccc4c(c3)OCCO4)n2)c1 = true (1)
Nc1nc(-c2ccc(F)cc2)c(-c2ccc3ncccc3n2)s1 = true (1)
COc1ccc(-c2oc3ncnc(N)c3c2-c2ccc(NC(=O)Nc3cc(C(F)(F)F)ccc3F)cc2)cc1 = true (1)

*Q* Check this compound for inhibition at or above 2%: Fc1cccc(COc2ccc(Nc3ncnc4sc(-c5ccco5)cc34)cc2Cl)c1
*A* true (1)

*Q* Check this compound for inhibition at or above 2%: COC(=O)Nc1nc2ccc(Oc3ccc(NC(=O)Nc4cccc(Cl)c4)cc3)cc2[nH]1
*A* false (0)

*Q* Check this compound for inhibition at or above 2%: COc1ccc(CNC(=O)c2ccc(-c3cc(-c4nnc(C)o4)ccc3C)cc2)cc1
*A* true (1)

*Q* Check this compound for inhibition at or above 2%: COc1ccc(-c2cc(-c3c[nH]nc3-c3ccccn3)ccn2)cc1
*A* true (1)

*Q* Check this compound for inhibition at or above 2%: CCN1CCC(CC(=O)Nc2n[nH]c3nnc(-c4cccc(F)c4F)cc23)CC1
*A* true (1)

*Q* Check this compound for inhibition at or above 2%: CCOc1ccc2c(-c3ccnc(Nc4cccc(C(F)(F)F)c4)n3)cnn2n1
*A* true (1)

*Q* Check this compound for inhibition at or above 2%: c1ccc(COc2ccc(Nc3ncnc4ccc(-c5ccco5)cc34)cc2)cc1
*A* false (0)

Sourced from ChEMBL document CHEMBL1961873
